- Measured On: T1, biotinylated human DLL3 protein expressed as a human IgG1 fusion protein (human, UniProt Q9NYJ7 27-492, limits assumed, biotinylated)
- T1 sequence: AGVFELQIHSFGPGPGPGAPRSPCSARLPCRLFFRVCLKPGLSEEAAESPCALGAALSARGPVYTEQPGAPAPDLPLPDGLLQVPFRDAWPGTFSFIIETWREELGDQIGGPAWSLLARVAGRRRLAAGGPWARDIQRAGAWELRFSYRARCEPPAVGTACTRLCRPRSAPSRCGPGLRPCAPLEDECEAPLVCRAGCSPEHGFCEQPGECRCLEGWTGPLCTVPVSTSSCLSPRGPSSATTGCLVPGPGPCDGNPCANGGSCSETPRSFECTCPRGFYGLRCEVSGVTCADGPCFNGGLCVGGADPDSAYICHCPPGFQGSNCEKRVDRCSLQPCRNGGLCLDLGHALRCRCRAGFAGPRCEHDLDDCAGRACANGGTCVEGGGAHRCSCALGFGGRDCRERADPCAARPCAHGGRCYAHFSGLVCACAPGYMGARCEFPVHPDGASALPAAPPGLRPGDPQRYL
- Assay Summary: Octet BLI, single 50 nM
What pKd was measured for each of the following?
Give bare numbers, as −log10 of the molar value.

Example binders with recorded pKd:
>  <Binder>
1G05 anti-DLL3 trispecific protein (other, not shown: linker 1808, anti-albumin sdAb, linker 1808, anti-CD3 fragment, His6 1819) EVQLVESGGGLVQPGGSLTLSCVASGSTSSINAIGWYRRAPGKQRELVAGISSDGSKYYADSVKGRFTISRDNAKNSVYLQMNSLRAEDTAVYYCYYFRTVTGSSMRYWGQGTLVTVSS

>  <pKd>
7.85

$$$$
>  <Binder>
4C01 anti-DLL3 trispecific protein (other, not shown: linker 1808, anti-albumin sdAb, linker 1808, anti-CD3 fragment, His6 1819) EVQLVESGGGLVQPGGSLTLSCAASGSSVRFLSMAWYRQAPGKKRELVAGISADGSTVYIDSVKGRFTISRDNAKNSVYLQMNSLRAEDTAVYYCYAYRWKTRYTYWGQGTLVTVSS

>  <pKd>
8.29

$$$$
>  <Binder>
3C05 anti-DLL3 trispecific protein (other, not shown: linker 1808, anti-albumin sdAb, linker 1808, anti-CD3 fragment, His6 1819) EVQLVESGGGLVQPGGSLTLSCVASGTSVSFLSMAWYRQAPGKKRELVAGISADGSTTYIDSVKGRFTISRDNAKNSVYLQMNSLRAEDTAVYYCYAYRWTTRRTYWGQGTLVTVSS

>  <pKd>
8.09

$$$$
>  <Binder>
1A07 anti-DLL3 trispecific protein (other, not shown: linker 1808, anti-albumin sdAb, linker 1808, anti-CD3 fragment, His6 1819) EVQLVESGGGLVQPGGSLTLSCVASGSISSINAMGWYRRAPGKQRELVAGISSDGSKVYADSVKGRFTISRDNAKNSVYLQMNSLRAEDTAVYYCYYFRMVSGSSMRYWGQGTLVTVSS

>  <pKd>
8.07

$$$$
>  <Binder>
2A011 anti-DLL3 trispecific protein (other, not shown: linker 1808, anti-albumin sdAb, linker 1808, anti-CD3 fragment, His6 1819) EVQLVESGGGLVQPGGSLTLSCVASGSTSSINAIGWYRRAPGKQRELVAGISSDGSKVYSDSVKGRFTISRDNAKNSVYLQMNSLRAEDTAVYYCYYFRPVSGSSMRYWGQGTLVTVSS

>  <pKd>
8.40

$$$$

For the 6 binders below, give their pKd values.
1. 2D06 anti-DLL3 trispecific protein (other, not shown: linker 1808, anti-albumin sdAb, linker 1808, anti-CD3 fragment, His6 1819) EVQLVESGGGLVQPGGSLTLSCVASGSTSSINAMGWYRRAPGKQRELVAGISSDGSKVYSDSVKGRFTISRDNAKNSVYLQMNSLRAEDTAVYYCYYFRTVSGSSSRYWGQGTLVTVSS
2. 4B08 anti-DLL3 trispecific protein (other, not shown: linker 1808, anti-albumin sdAb, linker 1808, anti-CD3 fragment, His6 1819) EVQLVESGGGLVQPGGSLTLSCAASGSSVSFMSMAWYRQAPGKKRELVAGISADGSTDYIASVKGRFTISRDNAKNSVYLQMNSLRAEDTAVYYCYAYRWTTRSTYWGQGTLVTVSS
3. 1C010 anti-DLL3 trispecific protein (other, not shown: linker 1808, anti-albumin sdAb, linker 1808, anti-CD3 fragment, His6 1819) EVQLVESGGGLVQPGGSLTLSCVASGSTSRINAMGWYRRAPGKQRELVAGVSSDGSKVYADSVKGRFTISRDNAKNSVYLQMNSLRAEDTAVYYCYYFRTVSGSSMSYWGQGTLVTVSS
4. 1C03 anti-DLL3 trispecific protein (other, not shown: linker 1808, anti-albumin sdAb, linker 1808, anti-CD3 fragment, His6 1819) EVQLVESGGGLVQPGGSLTLSCVASGSTSSINAMAWYRRAPGKQRELVAGISSDNSKVYADSVKGRFTISRDNAKNSVYLQMNSLRAEDTAVYYCYYFRTVGGSSMRYWGQGTLVTVSS
5. 2D02 anti-DLL3 trispecific protein (other, not shown: linker 1808, anti-albumin sdAb, linker 1808, anti-CD3 fragment, His6 1819) EVQLVESGGGLVQPGGSLTLSCVASGSTSSINALGWYRRAPGKQRELVAGISSDGSLVYADSVKGRFTISRDNAKNSVYLQMNSLRAEDTAVYYCYYFRIVSGSSMRYWGQGTLVTVSS
6. 2H04 anti-DLL3 trispecific protein (other, not shown: linker 1808, anti-albumin sdAb, linker 1808, anti-CD3 fragment, His6 1819) EVQLVESGGGLVQPGGSLTLSCVASGSTSSINAMGWYRRAPGKQRELVAGISSDTSKVYADSVKGRFTISRDNAKNSVYLQMNSLRAEDTAVYYCYYFRTVSGSYMRYWGQGTLVTVSS

8.18
8.00
8.60
8.21
7.85
8.20

For each of the binders below, state pKd.
1. 4E07 anti-DLL3 trispecific protein (other, not shown: linker 1808, anti-albumin sdAb, linker 1808, anti-CD3 fragment, His6 1819) EVQLVESGGGLVQPGGSLTLSCAASGSRVSFLSMAWYRQAPGKKRELVAGISADGSTMYIDSVKGRFTISRDNAKNSVYLQMNSLRAEDTAVYYCYAYRWTTRLTYWGQGTLVTVSS
2. 4B09 anti-DLL3 trispecific protein (other, not shown: linker 1808, anti-albumin sdAb, linker 1808, anti-CD3 fragment, His6 1819) EVQLVESGGGLVQPGGSLTLSCAASGSSVSFLSMAWYRQAPGKKRELVAGISADGSTDYISSVKGRFTISRDNAKNSVYLQMNSLRAEDTAVYYCYAYSWTTRYTYWGQGTLVTVSS
3. 3C09 anti-DLL3 trispecific protein (other, not shown: linker 1808, anti-albumin sdAb, linker 1808, anti-CD3 fragment, His6 1819) EVQLVESGGGLVQPGGSLTLSCAASGSSVSFLSMAWYRQAPGKKRELVAGISADGSTIYIDSVKGRFTISRDNAKNSVYLQMNSLRAEDTAVYYCYAYRWRTRYTYWGQGTLVTVSS
4. 2D05 anti-DLL3 trispecific protein (other, not shown: linker 1808, anti-albumin sdAb, linker 1808, anti-CD3 fragment, His6 1819) EVQLVESGGGLVQPGGSLTLSCVASGSTSRINAMGWYRRAPGKQRELVAGISSDGSKVYADSVKGRFTISRDNAKNSVYLQMNSLRAEDTAVYYCYYFRTASGSSMRYWGQGTLVTVSS

1: 7.96; 2: 8.27; 3: 8.11; 4: 8.08
